Molecular target: human recombinant ALK1 (GST fused to ALK1 intracellular domain [His142-Gln503]) (Homo sapiens)
Construct: GST fused to ALK1 intracellular domain [His142-Gln503]
Sequence (P37023 142-503): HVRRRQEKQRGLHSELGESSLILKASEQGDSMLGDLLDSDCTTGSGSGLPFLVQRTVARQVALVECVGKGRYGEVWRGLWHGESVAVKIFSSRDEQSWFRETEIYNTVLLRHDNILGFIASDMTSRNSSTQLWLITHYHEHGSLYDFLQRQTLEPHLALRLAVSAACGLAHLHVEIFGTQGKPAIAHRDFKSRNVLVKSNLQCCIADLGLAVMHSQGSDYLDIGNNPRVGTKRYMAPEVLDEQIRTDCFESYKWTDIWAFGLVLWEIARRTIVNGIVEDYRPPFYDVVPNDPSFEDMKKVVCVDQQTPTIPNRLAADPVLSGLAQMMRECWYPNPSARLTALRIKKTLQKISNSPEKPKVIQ
Test: ALK1-Kinase Flashplate-Assay
Conditions: 0.5 μM ATP, biotinylated α-casein substrate; read-out: Assay 1 (ALK1-Kinase Flashplate-Assay IC50 class)
# IC50 per entry

compound	IC50
OCc1cccc(-c2cnn3ccc(NC4CCC(O)CC4)nc23)c1 (centres unmarked)	1 to 10 µM
CC(=O)Nc1cccc(-c2cnn3ccc(Nc4ccccc4)nc23)c1	1 to 10 µM
OCc1cccc(-c2cnn3ccc(NCc4cccnc4)nc23)c1	1 to 10 µM
COc1ncc(-c2cnn3ccc(Nc4ccc(O)cc4)nc23)c(OC)n1	< 1 µM
c1cc(CNc2ccn3ncc(-c4cn[nH]c4)c3n2)ccn1	1 to 10 µM

Identify measured IC50 corresponding to COc1cccc(-c2cnn3ccc(Nc4ccc(NS(=O)(=O)c5ccc(C)cc5)cc4)nc23)c1
1 to 10 µM

Tell me measured IC50 for COc1cccc(-c2cnn3ccc(Nc4cc(OC)c(OC)c(OC)c4)nc23)c1 please.
1 to 10 µM

Tell me IC50 reported for CN1CCC(Nc2ccn3ncc(-c4cccc(C(F)(F)F)c4)c3n2)CC1
< 1 µM
